target: NfsA (Escherichia coli, UniProt P17117); construct: untagged, dimer; assay: X-ray crystal structure at […] Å with a second FMN as ligand; steady-state inhibition kinetics
Sequence (P17117 whole entry): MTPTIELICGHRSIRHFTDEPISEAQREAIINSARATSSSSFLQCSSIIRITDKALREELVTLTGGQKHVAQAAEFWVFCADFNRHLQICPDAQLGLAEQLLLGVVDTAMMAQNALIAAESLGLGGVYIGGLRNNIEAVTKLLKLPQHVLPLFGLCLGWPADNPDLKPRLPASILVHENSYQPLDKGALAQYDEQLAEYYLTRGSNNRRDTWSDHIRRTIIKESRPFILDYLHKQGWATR
quantity.measured: Ki

Entry Cc1cc2nc3c(=O)[nH]c(=O)nc-3n(C[C@H](O)[C@H](O)[C@H](O)COP(=O)(O)O)c2cc1C has what Ki?
~8 µM
